test-protocol: In vivo pharmacokinetics after single i.p. or i.v. dose
measurement-context: female, C57BL/6J, mouse, brain, iv; read-out: Brain half-life (converted)
measured-attribute: half-life (min)

molecule	display-unit	observed
Fc1cccc(-c2ccccc2NCc2nc3ccccc3o2)c1 [CMP343]	min	12

1. Cc1noc(-c2csc(S(=O)(=O)Nc3ccccc3C(F)(F)F)c2)c1C [CMP157]
2. Cc1ccc(-c2ccccc2NCc2nc3ccccc3o2)s1 [CMP354]
3. O=C(CCc1ccccc1)Nc1ccc(Br)cc1C(=O)O [CMP233]
# sort list by recorded half-life, greatest to least Field: ranking. Enter the labels in the order requested.
1, 2, 3
(1: 252 min, 2: 96 min, 3: 18 min)

----------
test-protocol: Hepatocyte clearance
Type: in vitro ADME
measurement-context: cryopreserved hepatocytes, 120 min, read-out: Hep. clearance (converted)
measured-attribute: CLint scaled at 1 μM (mL/min/kg)

structure-string	measured-attribute	observed
Cc1ccsc1-c1ccccc1NCc1nc2ccccc2o1	CLint scaled at 1 μM	347
c1csc(-c2ccccc2NCc2nc3ccccc3o2)c1	CLint scaled at 1 μM	293
Fc1ccccc1-c1ccccc1NCc1nc2ccccc2o1	CLint scaled at 1 μM	562
Fc1cccc(-c2ccccc2NCc2nc3ccccc3o2)c1	CLint scaled at 1 μM	322

----------
test-protocol: In vivo pharmacokinetics after single i.p. or i.v. dose
measurement-context: female, C57BL/6J, mouse, brain, ip; read-out: Brain half-life (converted)
measured-attribute: half-life (h)

Take a look at these entries with their results.
compound	measured-attribute	display-unit	observed
Cc1ccc(-c2ccccc2NCc2nc3ccccc3o2)s1 [CMP354]	half-life	h	2.6
Fc1cccc(-c2ccccc2NCc2nc3ccccc3o2)c1 [CMP343]	half-life	h	2.1

P. Cc1noc(-c2csc(S(=O)(=O)Nc3ccccc3C(F)(F)F)c2)c1C [CMP157]
Q. O=C(CCc1ccccc1)Nc1ccc(Br)cc1C(=O)O [CMP233]
For this pair, P and Q , which shows a numerically higher half-life? Response format: the label of the selected entry.
P

----------
test-protocol: Microsome clearance (human)
Type: in vitro ADME
measurement-context: human liver microsomes, 45 min, NADPH, read-out: Microsomes (h) clearance (converted)
measured-attribute: CLint scaled at 1 μM (mL/min/kg)

structure-string	CLint scaled at 1 μM [mL/min/kg]
CNc1ccc(-c2ccccc2NCc2nc3ccccc3o2)cc1	225

I. CNc1cccc(-c2ccccc2NCc2nc3ccccc3o2)c1
II. Cc1ccc(-c2ccccc2NCc2nc3ccccc3o2)s1
Higher CLint scaled at 1 μM: I or II ? Selection: enter the item's label.
II
(II: 460 mL/min/kg, I: 302 mL/min/kg)

----------
test-protocol: Parallel Artificial Membrane Permeability Assay (PAMPA)
Type: in vitro ADME
measurement-context: PAMPA; pH not given; read-out: PAMPA perm.
measured-attribute: Papp at 16 h, 200 μM (×10⁻⁶ cm/s)

structure-string	Papp at 16 h, 200 μM / ×10⁻⁶ cm/s
Nc1cccc(-c2ccccc2NCc2nc3ccccc3o2)c1	37.9
CNc1cccc(-c2ccccc2NCc2nc3ccccc3o2)c1	25

1. CNc1ccc(-c2ccccc2NCc2nc3ccccc3o2)cc1
2. Nc1ccccc1-c1ccccc1NCc1nc2ccccc2o1
Min Papp at 16 h, 200 μM? 1 | 2 Record your answer as the label of the chosen record.
1

----------
test-protocol: In vivo pharmacokinetics after single i.p. or i.v. dose
measurement-context: female, C57BL/6J, mouse, plasma, iv; read-out: Plasma half-life (converted)
measured-attribute: half-life (h)

structure-string	display-unit	half-life
O=C(CCc1ccccc1)Nc1ccc(Br)cc1C(=O)O	h	0.5

A. Cc1ccc(-c2ccccc2NCc2nc3ccccc3o2)s1
B. Cc1noc(-c2csc(S(=O)(=O)Nc3ccccc3C(F)(F)F)c2)c1C
Of A versus B , which is the one with smaller reported half-life? Identify your pick by its label.
A
(A: 1.5 h, B: 2.8 h)

----------
test-protocol: Caco-2 permeability assay
Assay type: in vitro ADME
measurement-context: human, direction not given, read-out: Caco-2 perm.
measured-attribute: Papp at 120 min, 10 μM (×10⁻⁶ cm/s)
Please reply with the bare figure in ×10⁻⁶ cm/s and do not write the unit itself.

Dear colleague, please send me the reported Papp at 120 min, 10 μM for "Cc1ccsc1-c1ccccc1NCc1nc2ccccc2o1" when you can.
52

----------
assayed-system: CYP 1A2 (Homo sapiens)
Sequence (P05177 whole entry): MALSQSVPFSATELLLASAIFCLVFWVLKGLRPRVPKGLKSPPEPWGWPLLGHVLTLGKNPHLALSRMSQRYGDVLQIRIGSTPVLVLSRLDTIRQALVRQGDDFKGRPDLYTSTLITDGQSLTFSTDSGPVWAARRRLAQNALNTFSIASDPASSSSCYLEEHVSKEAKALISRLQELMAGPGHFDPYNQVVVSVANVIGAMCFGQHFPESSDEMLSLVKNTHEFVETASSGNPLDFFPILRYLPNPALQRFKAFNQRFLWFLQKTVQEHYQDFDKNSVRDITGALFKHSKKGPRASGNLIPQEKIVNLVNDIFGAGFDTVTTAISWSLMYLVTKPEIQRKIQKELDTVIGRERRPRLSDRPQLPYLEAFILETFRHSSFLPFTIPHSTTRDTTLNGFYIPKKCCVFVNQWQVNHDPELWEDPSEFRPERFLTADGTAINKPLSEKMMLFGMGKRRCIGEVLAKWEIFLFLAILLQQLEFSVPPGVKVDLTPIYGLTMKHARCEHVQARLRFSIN
measured-attribute: IC50 (nM)
# value in nM; strip the unit string

Identify measured IC50 associated with "Fc1ccccc1-c1ccccc1NCc1nc2ccccc2o1"
1000

----------
test-protocol: In vivo pharmacokinetics after single i.p. or i.v. dose
measurement-context: female, C57BL/6J, mouse, heart, ip; read-out: Heart half-life (converted)
measured-attribute: half-life (h)

Worked set:
structure-string	half-life, h
Cc1ccc(-c2ccccc2NCc2nc3ccccc3o2)s1	4.3
Fc1cccc(-c2ccccc2NCc2nc3ccccc3o2)c1	15.3

a. Cc1noc(-c2csc(S(=O)(=O)Nc3ccccc3C(F)(F)F)c2)c1C
b. O=C(CCc1ccccc1)Nc1ccc(Br)cc1C(=O)O
For a and b , which recorded half-life is lower? Returns: label corresponding to the selected item.
b
(b: 1.1 h, a: 3.3 h)

----------
test-protocol: In vivo pharmacokinetics after single i.p. or i.v. dose
measurement-context: female, C57BL/6J, mouse, plasma, ip; read-out: Plasma half-life (converted)
measured-attribute: half-life (h)

structure-string	measured-attribute	observed
Fc1cccc(-c2ccccc2NCc2nc3ccccc3o2)c1	half-life	4.3

A. O=C(CCc1ccccc1)Nc1ccc(Br)cc1C(=O)O
B. Cc1ccc(-c2ccccc2NCc2nc3ccccc3o2)s1
C. Cc1noc(-c2csc(S(=O)(=O)Nc3ccccc3C(F)(F)F)c2)c1C
Hey, quick one: sort these by half-life, largest value first please. Respond with an ordered listing of the labels, as requested.
B, C, A
(B: 4.5 h, C: 2.9 h, A: 0.9 h)

----------
test-protocol: Microsome clearance (human)
Format: in vitro ADME
measurement-context: human liver microsomes, 45 min, NADPH, read-out: Microsomes (h) clearance (converted)
measured-attribute: CLint scaled at 1 μM (mL/min/kg)

compound	CLint scaled at 1 μM / mL/min/kg
Nc1cccc(-c2ccccc2NCc2nc3ccccc3o2)c1 [CMP465]	216

1. c1csc(-c2ccccc2NCc2nc3ccccc3o2)c1 [CMP355]
2. Nc1ccccc1-c1ccccc1NCc1nc2ccccc2o1 [CMP457]
Determine, for 1 and 2 , which has the greater value of CLint scaled at 1 μM. Answer format: the label of the selected item.
1

----------
Reported CLint scaled at 1 μM values are given for each entry in this list.
test-protocol: Microsome clearance (human)
Assay type: in vitro ADME
measurement-context: human liver microsomes, 45 min, NADPH, read-out: Microsomes (h) clearance (converted)
Experimental: Human or mouse liver microsomes were incubated with the test compound at a concentration of 1 μM for 45 min in the presence of cofactor (NADPH in excess). Samples were collected at various time points, and % remaining of test compound was determined using mass spectrometry (LC-MS/MS) to calculate hepatic clearance rate (L/h/kg).
Entry rule: numbers only, all in mL/min/kg.

Examples from the recorded data:
structure-string	observed
Cc1ccsc1-c1ccccc1NCc1nc2ccccc2o1	600
Fc1cccc(-c2ccccc2NCc2nc3ccccc3o2)c1	570

Okay, now this compound:
Specify reported CLint scaled at 1 μM for the compound shown: "Fc1ccccc1-c1ccccc1NCc1nc2ccccc2o1"
605
